Reference for the values: patent USRE47150

Provide the reported variant/wild-type of each item.
TEST_SYSTEM: T1, mouse tissue factor pathway inhibitor (TFPI) (mouse, UniProt O54819 29-289, limits assumed)
T1 construct: bought; also called mTFPI; murine TFPI
T1 sequence (looked up): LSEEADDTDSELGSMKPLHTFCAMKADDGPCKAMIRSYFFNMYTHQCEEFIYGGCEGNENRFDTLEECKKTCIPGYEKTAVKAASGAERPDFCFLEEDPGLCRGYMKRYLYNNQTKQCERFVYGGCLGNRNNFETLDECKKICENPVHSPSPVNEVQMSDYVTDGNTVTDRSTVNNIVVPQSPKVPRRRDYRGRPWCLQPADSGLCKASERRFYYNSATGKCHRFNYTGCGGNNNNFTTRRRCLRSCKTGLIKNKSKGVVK
EXPERIMENTAL_PROTOCOL: competitive ELISA
Please state the figure in ratio; there is no need to write the unit.

Prompt line: Fill blank: measured variant/wild-type of the binder 2A8 LC_V96W (Fab, V domains shown) VH: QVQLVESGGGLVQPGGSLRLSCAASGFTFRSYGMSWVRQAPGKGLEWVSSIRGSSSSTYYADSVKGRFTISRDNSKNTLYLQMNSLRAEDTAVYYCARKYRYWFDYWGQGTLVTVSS VL: DIELTQPPSVSVAPGQTARISCSGDNLRNYYAHWYQQKPGQAPVVVIYYDNNRPSGIPERFSGSNSGNTATLTISGTQAEDEADYYCQSWDDGVPWFGGGTKLTVLG is ____.
Response line: 4.3

Prompt line: Fill blank: measured variant/wild-type of the binder 2A8 HC_S35L (Fab, V domains shown) VH: QVQLVESGGGLVQPGGSLRLSCAASGFTFRSYGMLWVRQAPGKGLEWVSSIRGSSSSTYYADSVKGRFTISRDNSKNTLYLQMNSLRAEDTAVYYCARKYRYWFDYWGQGTLVTVSS VL: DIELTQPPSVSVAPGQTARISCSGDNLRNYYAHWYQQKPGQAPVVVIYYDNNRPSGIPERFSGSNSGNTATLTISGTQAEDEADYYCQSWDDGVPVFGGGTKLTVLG is ____.
Response line: 1.5

Prompt line: Fill blank: measured variant/wild-type of the binder 2A8 LC_D91W (Fab, V domains shown, also called 2A8-17) VH: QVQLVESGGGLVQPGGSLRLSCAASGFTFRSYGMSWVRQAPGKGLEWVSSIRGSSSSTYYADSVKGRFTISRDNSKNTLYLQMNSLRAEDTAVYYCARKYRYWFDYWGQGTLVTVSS VL: DIELTQPPSVSVAPGQTARISCSGDNLRNYYAHWYQQKPGQAPVVVIYYDNNRPSGIPERFSGSNSGNTATLTISGTQAEDEADYYCQSWWDGVPVFGGGTKLTVLG is ____.
Response line: 4

Prompt line: Fill blank: measured variant/wild-type of the binder 2A8 LC_P54L (Fab, V domains shown) VH: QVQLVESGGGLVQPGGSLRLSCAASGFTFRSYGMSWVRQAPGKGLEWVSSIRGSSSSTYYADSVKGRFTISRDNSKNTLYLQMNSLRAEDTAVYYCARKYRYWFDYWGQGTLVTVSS VL: DIELTQPPSVSVAPGQTARISCSGDNLRNYYAHWYQQKPGQAPVVVIYYDNNRLSGIPERFSGSNSGNTATLTISGTQAEDEADYYCQSWDDGVPVFGGGTKLTVLG is ____.
Response line: 2.7

Prompt line: Fill blank: measured variant/wild-type of the binder 2A8 HC_S55R (Fab, V domains shown, also called 2A8-8) VH: QVQLVESGGGLVQPGGSLRLSCAASGFTFRSYGMSWVRQAPGKGLEWVSSIRGSRSSTYYADSVKGRFTISRDNSKNTLYLQMNSLRAEDTAVYYCARKYRYWFDYWGQGTLVTVSS VL: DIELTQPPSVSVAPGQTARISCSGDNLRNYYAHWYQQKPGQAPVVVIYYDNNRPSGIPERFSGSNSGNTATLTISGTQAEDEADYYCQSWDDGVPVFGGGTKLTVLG is ____.
Response line: 2.1

Prompt line: Fill blank: measured variant/wild-type of the binder 2A8 HC_S35D (Fab, V domains shown, also called 2A8-4) VH: QVQLVESGGGLVQPGGSLRLSCAASGFTFRSYGMDWVRQAPGKGLEWVSSIRGSSSSTYYADSVKGRFTISRDNSKNTLYLQMNSLRAEDTAVYYCARKYRYWFDYWGQGTLVTVSS VL: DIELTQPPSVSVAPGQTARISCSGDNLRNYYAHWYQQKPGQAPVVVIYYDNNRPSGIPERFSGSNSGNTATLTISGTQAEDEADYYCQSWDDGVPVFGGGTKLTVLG is ____.
Response line: 2.6
